Origin of measurements: the supplement of paper PMC9170038

Field: apparent KD of MS2 coat protein. Provide a value for each of the sequences that follow.
Tested on: MS2 coat protein
procedureText: apparent KD of MS2 coat protein; higher = weaker reporter binding
conditionDetails: Eterna round: R107; input ligand: theophylline 20 uM
Give the value, in units of µM, as a plain number.

In: # get_value(readout= apparent KD of MS2 coat protein, system= MS2 coat protein) for UCAGUGCAAGGAAGGAGCGGGUACAUGAGGAUCACCCAUGUGCAAGUGGUGAGCGUUUGUGCCCAGGUAGGUCGCCUAGCCUGGU [XArg-B18]
Out: 0.172

In: Find the measured apparent KD of MS2 coat protein: item GGAUAGGACAGAAGGAGCGUGAGAUGCAAAGCUUCAUUCCUCACAUGAGGAUCACCCAUGUCACAGGUAGGUCGCUGUCCUAUCG [#19 Exclusion - Arginine B] , target or system MS2 coat protein.
Out: 0.106

In: For MS2 coat protein, provide apparent KD of MS2 coat protein of UGUAUGUGAUCUGAUACCAGUCCAACUGGUAAAUCAUGAGGAUCACCCAUGGAAAAUUGGGACCCUUGGCAGCAGAUCGCAUACU please.
Out: 0.49

In: Find apparent KD of MS2 coat protein (MS2 coat protein) for the entry AUCGUACCUGAUGAUACCAGCAAUUGCUCGUGACAUGAGGAUCACCCAUGUGACCAGUGAUGCCCUUGGCAGCAUGGUCGGUGCA [Same State - Theophylline B (Freestyle 22)]
Out: 0.0793

In: Record ACAUGAGGAUCACCCAUGUGGCGUCUUGAUACCAGACCCGCACUAGUCCCUUGGCAGCAACUACGUGAGGGUCGCCCAUGUGUAG [zxdullin] : what is its apparent KD of MS2 coat protein with MS2 coat protein?
Out: 0.0508

In: Tell me reported apparent KD of MS2 coat protein for CAUGACAUGAGGAUCACCCAUGUAUCCAGUCGAGGACCGGUACGGCCGCCACUCGGUGCCUUCAAAUUUACAGACAGGUGACAGG [theeternabot_sameState_MS2_Trp_A_30] , tested with MS2 coat protein.
Out: 0.0429

In: Entry GGUUAGGUUUUUGAUACCAGCUAUUGGUGUCAUCUGAGGAUCACCCAGGUCUUGUGUUUUAGCCCUUGGCAGCAAAAGUUUAGUC [SSTheo B #28] , system MS2 coat protein: what apparent KD of MS2 coat protein was measured?
Out: 0.118

In: Recorded apparent KD of MS2 coat protein for CUCCCACUAUCUGAUACCAGAGGAUAAACGUAGACUGGGAACAUGAGGAUCACCCAUGUCCUCCCUUGGCAGCAGGACUUAUCUC [theeternabot_exclusion_MS2_Theo_B_29] with MS2 coat protein, please?
Out: 0.0299

In: Record lookup: for MS2 coat protein, what apparent KD of MS2 coat protein belongs to GCACCAGGUACGGAUACCAGCUGCCAUAGUUACAUGAGGAUCACCCAUGUGAUCUAUUGUAGCCCUUGGCAGCUGUACCUGGUGC [SSThB NP+V+V2 #5 Same Structure] ?
Out: 0.398

In: # query: apparent KD of MS2 coat protein | item UGGCAGCACCUCAUGUGCUGCCAAGGUGAUACCAGCAUCGAAAGAUGCCCUUGGCAGCACCAACAUGAGGAUCACCCAUGUAAUA [(MT)''-(M)'-(T')-(Theo)-(Ms2)_Design1/22_7] | system: MS2 coat protein
Out: 0.374

In: Under MS2 coat protein: apparent KD of MS2 coat protein value of CUCUUGGCCGCAGUACGUUUAUAGACCUAUCGAGGACCGGUACGGCCGCCACUCGGUUAGUCACAUGAGGAUCACCCAUGUGUCC [theeternabot_exclusion_MS2_Trp_A_38] ?
Out: 0.023

In: For the record AGUUCCAGGUCGGCCGCCACUGGCGUGGCCGGUCCUCGGACUUACAUGAGGAUCACCCAUGUGAACAGGACCGGGACCGCAUGGG [Exclusion Tryptophan B GF 25] , what value of apparent KD of MS2 coat protein is listed for MS2 coat protein?
Out: 0.046

In: Report apparent KD of MS2 coat protein for ACAUGAGGAUCACCCAUGUAAGAUGCAGAAGGAGCGGGAAAUAACCCAGGUAGGUCGCUGCGGUUUGGAUUAUUGUGUUCGUGAA [#08 Exclusion - Arginine A] tested on MS2 coat protein.
Out: 0.0188

In: Which measured apparent KD of MS2 coat protein belongs to AUUGCGAGUGAGUCGUGUAACGAUUCAGAUACCAGGCAUUUCGUUGUCCCUUGGCAGCUGUCUUACAUGAGGAUCACCCAUGUUA [#29 Exclusion-TheophyllineA] , tested on MS2 coat protein?
Out: 0.0548
